// provenance: the nanobody polyreactivity screen of Harvey et al. (2022)

testDetails: yeast display, Sf9 membrane polyspecificity reagent, FACS + sequencing; frameworks hold sequencing errors

- sequenceEntry: "QVQLVESGGGLVQAGGSLRLSCAASGRTFKAYAMGWYRQAPGKERELVAGISWSGGNTYYADSVKGRFTISRDNAKNTVYLQMNSLKPEDTAVYYCAASLGGLWEDDYWGQGTQVTVSS"
  polyreactivity (PSR sort gate): "high polyreactivity"
- sequenceEntry: "QVQLVESGGGLVQAGGSLRLSCAASGRIFIYYTMGWYRQAPGKEREFVAAITYSGGSTRYADSVKGRFTISRDNAKNTVYLQMNSLKPEDTAVYYCAAKFSVRRGFDYWGQGTQVTVSS"
  polyreactivity (PSR sort gate): "low polyreactivity"
- sequenceEntry: "QVQLVESVGCLVQAGGSLRLSCDASGIIFNQNTMGWYRPAPGKERQLVAAITSSVGSTYYADSVKGRFTISRDNAKNTVYLQMNSLKPEVTAVYYCAATGWVYRRSRDYWGQGTQVTVSS"
  polyreactivity (PSR sort gate): "low polyreactivity"
- sequenceEntry: "QVKLVESAGCLVQAGGSLRLSCAASGRIFRRYAMGWYRQSTGKESELVAAISSRGGLTYYADSVKGRFTISRDNAKNTVYLLMNSLKTEDTAVYYCAAYYFVTETYGPYEYWGQGTQVTVSS"
  polyreactivity (PSR sort gate): "high polyreactivity"
- sequenceEntry: "QVQLVESGGGLVQAGGSLRLSCAASGLTFTGYFMGWYRQAPGKERELVAAISYSGSSTYYADSVKGRFTISRDNAKNTVYLQMNSLKQEDTAVYYCAATSHAYYPRYYYWGQGTQVTVSS"
  polyreactivity (PSR sort gate): "high polyreactivity"
- sequenceEntry: "QVQLVESGGGLVQAGGSLRLSCASSGRTFNPYAMGWYRQAPGKERELVAAISRSGGGTYYADSVKGRCTISRDNAKNTVYLQMNSLKPEDTAVYYCNADRATCWEQWWYDNWGQGTQVTVSS"
  polyreactivity (PSR sort gate): "low polyreactivity"
- sequenceEntry: "QVQLVESGGGLVQAGGSLRLSGAASGSSFLRNAMGWSRQAPGKERELVATISTGSGRTYYADSVKGRFTISRDNAKNTVYLQMTSLKPEDTAVYYCAASRTLRKHRYEYWGQGTKVTVSS"
  polyreactivity (PSR sort gate): "high polyreactivity"
- sequenceEntry: "QVQLVESGGGLVQAGGSLRLSCAATGRTFQDNAMGWYRQAPGKERELVAAISWRGGSTNYADSVKGRFTISRDNAKNTVYLQMNSLKPEDTAVYYCNRDPRKYGKLDYWGQGTQVTVSS"
  polyreactivity (PSR sort gate): "low polyreactivity"
- sequenceEntry: "QVQLVESGGGLVQAGGSLLLSCAASGGTFRVYAMGSYRQAPVKERELVAAITWRGGRTYYGDSVKGRFTISRDHAKNTVYLQMKRVKPEDTAVYFCAADRYGDLYDYWGQGTQVTVSS"
  polyreactivity (PSR sort gate): "high polyreactivity"
- sequenceEntry: "HVKLVESGGGLVQAGGCLRLSCAASGSNFFHNAMGWYRQAPGKERELVATISWRSASTYYADSVKGRFTISRDNAKKTVYLQMNSLKPEDTAVYYCAAKLHYRQYYYRYGYDYWGQGTQVTVSS"
  polyreactivity (PSR sort gate): "high polyreactivity"
- sequenceEntry: "QVQLVESGGGLVQAGGRLRLSCAASGTTFVYYAMGWYRQAPGKERELVAAITASGGRTYYADSVKGRFTISRDNSKNTVYLEMNSLKPDDTAVYYCNARARKSIRVGGYNYWGQGSQVTVSS"
  polyreactivity (PSR sort gate): "high polyreactivity"
- sequenceEntry: "QVQLVESGGGLVQAGGSLRLSCAASGSIFGPYAMGWYRQAPGKERELVAVISRSGGSTYYADSVKGRFTISRDNAKNTVYLQMNSLKPEDTAVYYCAAYRGPRADYYWGQGTHVTVSS"
  polyreactivity (PSR sort gate): "high polyreactivity"
- sequenceEntry: "QVQLVESGGGLVQAGGSLRLSCAASGSTFSRYAMGWYRQAPGKERELVAAISSRGGSTYYADSVKGRFTISRDNAKNTVYLQMNSLKPEDTAVYYCAARPYYYIVRGTEYDYWGQGTQVTVSS"
  polyreactivity (PSR sort gate): "high polyreactivity"
- sequenceEntry: "QVQLVESGGGLVQSGRSLRLSCAASGSISVWYVMGWYRPAPGKEMELVAAITRSGGSTFYAYSVKGRFTISRDNAKNTVYLQMNSLKPEDTAVYYCAADGGVAWGYGYWGQGTQVTVSS"
  polyreactivity (PSR sort gate): "low polyreactivity"
- sequenceEntry: "QVQLVESGGGLVQAGGSLRLSCAASVFIFGLYVMGWYRQAPGKERELVAAITFNGGSTYADSVKGRFTISRDNAKNTVYLQMNSLKPEDTAVYYCNAGRAVYRYWYKYVYWGQGTQVTVSS"
  polyreactivity (PSR sort gate): "high polyreactivity"
- sequenceEntry: "QVQLVESGGGLVQAGGSLRLSCAASGSTFVWYAMGWYRQAPGKEREFVAAITSDGGSTYYADSVKGRFTISRDNAKNTVYLQLNSLKPEDTAVYYCAADYYSLASGWYYYWGQGTQVTVSS"
  polyreactivity (PSR sort gate): "high polyreactivity"
- sequenceEntry: "QVQLVESGGGLVQAGGSLRLSCAASGRTFWPNVMGWYRQAPGKERELVAAITWGDASTYYADSVKGRFTISRDNAKNTVYLQMNSLKPEDTAVYYCAASDYGRTYDYWGQGTQVTVSS"
  polyreactivity (PSR sort gate): "low polyreactivity"
- sequenceEntry: "QVQLVESGGGLVQTGGSLRLSCAASGRIFFDNAMGWYRQAPGKERELVAGIDSGGSTYYADSVKGRFTISRDNAKNTVYLQMNSLKPEDTAVYYCNSDYPPSTQSPLLQSYDYWGQGTQVTVSS"
  polyreactivity (PSR sort gate): "low polyreactivity"
- sequenceEntry: "QVQLGESGGGLVQAGGSLRLSCAASGRIIYTNAMGWYRQAPGKETELVAAINRSGGITYYADSVKGRFTISRDNAKNTVYLQMNSLKPEDTAVYYCAKDYSWASYKHDYWGQGTQVTVSS"
  polyreactivity (PSR sort gate): "low polyreactivity"
- sequenceEntry: "QVQLVESGGGLLQAGGSLRLSCAASGSNFVAYAMGRYRQAPGKERELVAAITYSGGGTYYADSVKGRCTISRDNAKNTVYLLMNSLKPEDTALYYCNAVGGIYDFDYCGQGTQVTVSS"
  polyreactivity (PSR sort gate): "high polyreactivity"
- sequenceEntry: "QVQLVESGGGLVQAGGSLRLSSPASGLIFGAYAMGWYRQERGKERELVAAISYSGGRTYYADSVKGRFTMSRDNAKNTVYLQLNSLKPEDTAVYYCNALWYLSLSYRYDYWGQGTQVTVSS"
  polyreactivity (PSR sort gate): "high polyreactivity"
